# STUDY_SYSTEM: Glutamate NMDA receptor; Grin1/Grin2a (Rattus norvegicus) (UniProt P35439+Q00959)
# MEASUREMENT_DESCRIPTION: Antagonist activity at rat GluN1A/GluN2A receptor expressed in Xenopus laevis oocytes assessed as inhibition of glutamate/glycine-induced channel current at 500 nM at -70 mV holding potential by two electrode voltage clamp method relative to TCN-201
# Type: cell-based
REPORTED_ENDPOINT: fold change (FC)
// response body must contain only the number

Solved cases below.
Nc1ccc(S(=O)(=O)NCc2ccc(C(=O)NNC(=O)c3ccccc3)cc2)cc1 ... 0.379
COc1cccc(S(=O)(=O)NCc2ccc(C(=O)NNC(=O)c3ccccc3)cc2)c1 ... -0.062

**Query** Give the value of fold change (FC) reported for the following: `O=C(NNC(=O)c1ccc(CNS(=O)(=O)c2cccc(Br)c2)cc1)c1ccccc1`
**Result** 1.27

**Query** Identify fold change (FC) associated with the compound `O=C(NNC(=O)c1ccc(CNS(=O)(=O)c2ccccc2)cc1)c1ccccc1`
**Result** 0.351

**Query** Let me know recorded fold change (FC) for `O=C(NNC(=O)c1ccc(CNS(=O)(=O)c2ccc(Cl)cc2)cc1)c1ccccc1` , thanks.
**Result** 0.279

**Query** Entry `O=C(NNC(=O)c1ccc(CNS(=O)(=O)c2cccc([N+](=O)[O-])c2)cc1)c1ccccc1` needs its fold change (FC) filled in; supply it.
**Result** 0.161

**Query** Return fold change (FC) for the following compound: `O=C(NNC(=O)c1ccc(CNS(=O)(=O)c2cccnc2)cc1)c1ccccc1`
**Result** 0.151

###

# STUDY_SYSTEM: Glutamate NMDA receptor; Grin1/Grin2a (Rattus norvegicus, UniProt P35439+Q00959)
# MEASUREMENT_DESCRIPTION: Antagonist activity at rat GluN1A/GluN2A receptor expressed in Xenopus laevis oocytes assessed as inhibition of glutamate/glycine-induced channel current at -70 mV holding potential by two electrode voltage clamp method
Recorded pIC50 values for a group of molecules are listed next.
# pIC50 = -log10(concentration in molar units)

O=C(NNC(=O)c1ccc(CNS(=O)(=O)c2ccc(F)c(Cl)c2)cc1)c1ccccc1 ... 6.29

**Query** Give a short answer stating reported pIC50 for `O=C(NNC(=O)c1ccc(CNS(=O)(=O)c2cccc(Br)c2)cc1)c1ccccc1` .
**Result** 6.69

###

# STUDY_SYSTEM: Glutamate NMDA receptor; Grin1/Grin2a (Rattus norvegicus) (UniProt P35439+Q00959)
# MEASUREMENT_DESCRIPTION: Antagonist activity at rat GluN1A/GluN2A receptor expressed in Xenopus laevis oocytes assessed as inhibition of glutamate/glycine-induced channel current at 500 nM at -70 mV holding potential by two electrode voltage clamp method relative to TCN-201
# Type: cell-based
REPORTED_ENDPOINT: fold change (FC)

These solved cases illustrate the format of a correct answer.
O=C(NNC(=O)c1ccc(CNS(=O)(=O)c2ccccc2Cl)cc1)c1ccccc1 ... -0.092
O=C(NNC(=O)c1ccc(CNS(=O)(=O)c2ccc([N+](=O)[O-])cc2)cc1)c1ccccc1 ... 0.002
O=C(NNC(=O)c1ccc(CNS(=O)(=O)c2ccc(F)cc2)cc1)c1ccccc1 ... 0.103
O=C(NNC(=O)c1ccc(CNS(=O)(=O)c2ccccc2F)cc1)c1ccccc1 ... 0.019
O=C(NNC(=O)c1ccc(CNS(=O)(=O)c2ccc(I)cc2)cc1)c1ccccc1 ... 0.051
O=C(NNC(=O)c1ccc(CNS(=O)(=O)c2ccccc2[N+](=O)[O-])cc1)c1ccccc1 ... 0.397
O=C(O)c1ccc(S(=O)(=O)NCc2ccc(C(=O)NNC(=O)c3ccccc3)cc2)cc1 ... 0.283
O=C(NNC(=O)c1ccc(CNS(=O)(=O)c2ccccc2Br)cc1)c1ccccc1 ... 0.045

Here's the next entry for you.
**Query** Using known records, supply fold change (FC) for `Cc1cccc(S(=O)(=O)NCc2ccc(C(=O)NNC(=O)c3ccccc3)cc2)c1`
**Result** 0.28
